Test system: A498 renal
Measurement Notes: NCI-60 one-dose screen, 48 h (100 = growth as untreated, 0 = no growth, -100 = all killed)
Experimental Setup: 10 µM unless noted
Experimental: Growth inhibition of the A498 human tumor cell line is measured as a screen for anti-cancer activity. Cells are grown in 96 well plates and exposed to the test compound for 48 hours. Compounds are tested at a single concentration, which is 10^-5 M for most compounds. The reported endpoint is percent growth (GI% or GIPRCNT), where numbers from 0 - 100% represent growth inhibition, and numbers from -100% - 0 represent cell death. For example, a value of 40 represents 60% growth inhibition. […]
The panel holds about 83,000 compounds, 20% with a hit somewhere; the sample as a whole holds those more often. The source made the active and inactive calls. The calls were made as follows: active = growth percent below 10; inactive = the rest.
Recorded Endpoint: growth

Below, 7 molecules whose answers are already recorded.
Req: Query (molecule): `Cn1ccnc1C(=O)/C=C/c1ccc(C(=O)Nc2ccc(NC(=O)CCNC(=O)c3csc(Br)n3)cc2)cc1` ; field requested: growth
Resp: 100% (inactive)

Req: Fill blank: measured growth of the molecule `COc1ccc(-c2cc(-c3cccc4ccccc34)n3c(n2)nc2ccccc23)cc1OC` is ____.
Resp: 38% (inactive)

Req: Which value of growth has been reported for `COc1ccc(-c2no[n+]([O-])c2Nc2ccccc2Br)cc1` in the records?
Resp: 113% (inactive)

Req: Which growth value is on record for `C=C(C)C(=O)O[C@H]1C[C@@]2(C)OC(=CC2=O)[C@H](C)[C@H](O)[C@H]2OC(=O)C(=C)[C@@H]21` ?
Resp: 131% (inactive)

Req: Field request: growth | item: `CC1=CC(=O)CC(C)(C)[C@@]1(O)/C=C/C(C)=C\C(=O)O`
Resp: -72.7% (active)

Req: Any idea what growth was measured for `Cc1cc(O)c(=O)cc2c1C[C@H]1CC(C)(C)/C=C/C[C@]3(C)Oc4cc(=O)c(O)cc(C)c4C[C@H]3C[C@H](O)[C@@]1(C)O2` ?
Resp: -7.88% (active)

Req: Need growth of `CCCCSc1nnc(-c2ccc(-c3ccc(Cl)cc3)nc2C)o1` , thanks.
Resp: 71% (inactive)

From here, focus on the item given below.
Req: Look up growth for this molecule: `CCNCCCn1c2c(c3cc(OC)c(OC)cc3c1=O)C(=O)c1cc(OC)cnc1-2`
Resp: 15.8% (inactive)

----------
Test system: KM12 colon
Measurement Notes: NCI-60 one-dose screen, 48 h (100 = growth as untreated, 0 = no growth, -100 = all killed)
Experimental Setup: 10 µM unless noted
Compounds without any hit were thinned out: in the full panel of roughly 83,000, 20% have a hit.
Here, each record is paired with measured growth data.
Give just the number in %; leave the unit off.

Req: Could you tell me which growth is on file for `O=C(COc1ccc(/C=C2\SC(=O)NC2=O)cc1)Nc1ccc(C(=O)/C=C/c2cc3ccccc3nc2Cl)cc1` ?
Resp: 59.5

Further cases:
Req: Which growth value belongs to `COc1cc(CNC(=O)/C=C/c2ccccc2)ccc1OCC(=O)NO` ?
Resp: 99.3

Req: Tell me the measured growth of `COc1cc2oc(-c3cccc(NC(=O)c4cc(NC(=O)[C@H](C)N)ccc4Cl)c3)cc(=O)c2c(OC)c1OC` , please.
Resp: 96.3

----------
Test system: PC-3 prostate
Measurement Notes: NCI-60 one-dose screen, 48 h (100 = growth as untreated, 0 = no growth, -100 = all killed)
Experimental Setup: 10 µM unless noted
This is part of a sample that, as a whole, favours compounds with a hit. Of some 83,000 tested, about 20% had one in any assay.
Label 1 when growth < 50%; otherwise 0.

See these solved cases before continuing.
Req: growth under 50%? Item: `O=c1[nH]c2cc(Cl)ccc2n1C1CCN(c2ccc3nnc(Cl)n3n2)CC1`
Resp: 0

Req: Below 50% on growth? Entry `COc1ccccc1N1CCN(C2=NN=C(c3cccc(Cl)c3)c3ccccc3C2)CC1`
Resp: 1

Req: Lab note: confirm whether the reported growth for this molecule is below 50%, equality not counting. molecule: `COc1cc2c3c(n(CCCN4CCCCC4)c(=O)c2cc1OC)-c1cc2c(cc1C3=O)OCO2`
Resp: 1

Others:
Req: Consider the molecule `Nc1ccc(-c2nnc(SCc3ccc(O)c4ncccc34)o2)cc1` . Is its growth strictly less than 50%?
Resp: 1

Req: Identify whether the molecule `Cc1ccc(/C=C/c2nn3c(-c4ccco4)nnc3s2)cc1` records growth below 50%.
Resp: 0

Req: Decide: growth of CCOC(=O)/C=c1\sc2n(c1=O)C1C(NN=2)N(CC)C(=O)N1CC (stereo unspecified) strictly below 50%?
Resp: 0

Req: Quick check: growth of `COc1cc(/C=C2\SC(=O)NC2=O)ccc1OCC(=O)Nc1ccc(C(=O)/C=C/c2cc3ccccc3nc2Cl)cc1` under 50%?
Resp: 0

Req: Could you please tell me whether growth recorded for `O=C(O)c1ccc(-n2cc(CNc3ccc(Cl)cc3)c(-c3ccc(F)cc3)n2)cc1` is less than 50%?
Resp: 0

Req: In plain terms, does `NS(=O)(=O)c1ccc(Nc2nc(N/N=C/c3ccc(C(F)(F)F)cc3)nc(Nc3ccccc3)n2)cc1` come in under 50% for growth?
Resp: 1

Req: # TODO verify growth < 50% strictly for this molecule: `N#C/C(=C\c1ccc(Cl)cc1Cl)C(N)=O`
Resp: 0
